A set of molecules tested on Cytochrome P450 2C9 (Homo sapiens, UniProt P11712), with measured AC50:

Below are worked cases with known answers.
>>> df
                           substance_smiles                             tested_system  endpoint           measured_result
0  CC(=O)OC[C@@H]1O[C@H](C/C=N\OC[C@@H](C)[C@H](OCc2ccccc2)C(C)C)C=C[C@@H]1OC(C)=O  Cytochrome P450 2C9 (Homo sapiens, UniProt P11712)      AC50    6.31 µM (inconclusive)
1  CC(=O)CC(=O)[C@@]1(O)CC[C@@H]2[C@@H]3C=C(C)C4=CC(=O)CC[C@@H]4[C@H]3CC[C@]21C  Cytochrome P450 2C9 (Homo sapiens, UniProt P11712)      AC50    12.6 µM (inconclusive)
2  CC(C)C[C@H]1C(=O)N2CCC[C@@H]2[C@]2(O)O[C@](NC(=O)[C@@H]3C=C4c5cccc6[nH]c(Br)c(c56)C[C@H]4N(C)C3)(C(C)C)C(=O)N12  Cytochrome P450 2C9 (Homo sapiens, UniProt P11712)      AC50      10 µM (inconclusive)
3  COc1ccc(-c2c(C)oc3c(CN4CCN(CCO)CC4)c(O)ccc3c2=O)cc1OC  Cytochrome P450 2C9 (Homo sapiens, UniProt P11712)      AC50   0.447 µM (inconclusive)
4  COCCn1c(=O)c(-c2ccc(OC)cc2)nc2cnc(OC)nc21  Cytochrome P450 2C9 (Homo sapiens, UniProt P11712)      AC50    39.8 µM (inconclusive)
5  N/C(=N\N=C/c1ccc(-c2ccc(O)c(C(=O)O)c2)o1)N[N+](=O)[O-]  Cytochrome P450 2C9 (Homo sapiens, UniProt P11712)      AC50    7.94 µM (inconclusive)
6    O=C(C[C@@H](c1ccccc1)N1CCCCC1)c1ccccc1  Cytochrome P450 2C9 (Homo sapiens, UniProt P11712)      AC50    3.16 µM (inconclusive)
7      O=c1cnc2cnc(N3CCNCC3)nc2n1CCc1ccccc1  Cytochrome P450 2C9 (Homo sapiens, UniProt P11712)      AC50      20 µM (inconclusive)
8  C/C=C1\C(=O)C[C@@H]2[C@@H]3CCC4=CC(=O)CC[C@@]4(C)[C@H]3CC[C@@]12C  Cytochrome P450 2C9 (Homo sapiens, UniProt P11712)      AC50    39.8 µM (inconclusive)
9      Cc1ccc(C(=O)CSc2nc(C)cc(=O)[nH]2)cc1  Cytochrome P450 2C9 (Homo sapiens, UniProt P11712)      AC50  0.0282 µM (inconclusive)

The record that follows has no AC50 shown yet.
Ask: I have this molecule here, Cc1ccc2[nH]c(-c3ccc(NC(=O)Cc4cccs4)cc3)nc2c1 , and I need its recorded AC50.
Reply: 0.708 µM (inconclusive)

---

Target: Ubiquitin-conjugating enzyme E2 N (Homo sapiens);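 also: Dose-response confirmation in a TR-FRET assay detecting UBC13-driven polyubiquitin chain formation, inhibition measured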
Sequence (P61088 whole entry): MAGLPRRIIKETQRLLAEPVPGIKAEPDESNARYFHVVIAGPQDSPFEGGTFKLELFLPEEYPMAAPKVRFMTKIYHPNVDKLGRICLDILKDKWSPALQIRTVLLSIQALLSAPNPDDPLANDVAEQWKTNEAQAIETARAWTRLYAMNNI
Assay type: functional
The source made the active and inactive calls.
Reply using exactly one outcome from TRUE for active, FALSE for inactive

>>> print(df.to_string())
                           substance_smiles                             tested_system  class
0  CCN1C(=O)c2cccc3c(NC(=O)c4ccc(S(=O)(=O)N5CCOCC5)cc4)ccc1c23  Ubiquitin-conjugating enzyme E2 N (Homo sapiens)   TRUE
1  CC(=O)O[C@H]1[C@@H](O)[C@H](O)[C@H](Oc2c(O)c(C)c3c4c2[C@@H](C)CC[C@@H]4[C@@H](C)C[C@H]3C=C(C)C)O[C@H]1C  Ubiquitin-conjugating enzyme E2 N (Homo sapiens)  FALSE

Let us examine a further case.
Ask: Which outcome was assigned to COc1ccc2[nH]c(SCc3nc(N)nc(Nc4ccccc4)n3)nc2c1 in this test?
Reply: FALSE
